The values you see were collected from BindingDB's records for doi:10.1021/jm970235u.

testedOn: Integrin alpha-IIb/beta-3 (Homo sapiens, UniProt P08514+P05106)
Sequence (P05106 27-788 limits assumed): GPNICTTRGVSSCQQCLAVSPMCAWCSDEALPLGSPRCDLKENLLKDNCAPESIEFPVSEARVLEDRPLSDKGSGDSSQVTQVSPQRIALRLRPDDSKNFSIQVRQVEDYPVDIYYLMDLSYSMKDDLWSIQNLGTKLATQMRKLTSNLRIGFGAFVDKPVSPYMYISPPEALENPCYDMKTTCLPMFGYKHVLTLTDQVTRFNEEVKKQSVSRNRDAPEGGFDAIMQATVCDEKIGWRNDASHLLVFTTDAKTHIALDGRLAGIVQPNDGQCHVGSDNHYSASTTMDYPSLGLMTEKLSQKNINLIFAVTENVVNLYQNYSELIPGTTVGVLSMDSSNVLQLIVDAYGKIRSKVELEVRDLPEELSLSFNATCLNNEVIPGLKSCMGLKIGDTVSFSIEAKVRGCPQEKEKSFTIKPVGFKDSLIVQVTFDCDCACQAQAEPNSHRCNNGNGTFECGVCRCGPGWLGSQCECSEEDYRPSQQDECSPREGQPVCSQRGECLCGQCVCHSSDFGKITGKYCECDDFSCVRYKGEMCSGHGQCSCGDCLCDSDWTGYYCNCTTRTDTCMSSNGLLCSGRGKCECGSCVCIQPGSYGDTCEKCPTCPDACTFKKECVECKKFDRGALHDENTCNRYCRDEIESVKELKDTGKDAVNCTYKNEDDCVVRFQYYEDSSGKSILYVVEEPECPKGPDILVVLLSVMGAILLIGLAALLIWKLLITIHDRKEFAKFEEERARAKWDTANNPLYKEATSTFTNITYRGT
Sequence (P08514 32-887 limits assumed): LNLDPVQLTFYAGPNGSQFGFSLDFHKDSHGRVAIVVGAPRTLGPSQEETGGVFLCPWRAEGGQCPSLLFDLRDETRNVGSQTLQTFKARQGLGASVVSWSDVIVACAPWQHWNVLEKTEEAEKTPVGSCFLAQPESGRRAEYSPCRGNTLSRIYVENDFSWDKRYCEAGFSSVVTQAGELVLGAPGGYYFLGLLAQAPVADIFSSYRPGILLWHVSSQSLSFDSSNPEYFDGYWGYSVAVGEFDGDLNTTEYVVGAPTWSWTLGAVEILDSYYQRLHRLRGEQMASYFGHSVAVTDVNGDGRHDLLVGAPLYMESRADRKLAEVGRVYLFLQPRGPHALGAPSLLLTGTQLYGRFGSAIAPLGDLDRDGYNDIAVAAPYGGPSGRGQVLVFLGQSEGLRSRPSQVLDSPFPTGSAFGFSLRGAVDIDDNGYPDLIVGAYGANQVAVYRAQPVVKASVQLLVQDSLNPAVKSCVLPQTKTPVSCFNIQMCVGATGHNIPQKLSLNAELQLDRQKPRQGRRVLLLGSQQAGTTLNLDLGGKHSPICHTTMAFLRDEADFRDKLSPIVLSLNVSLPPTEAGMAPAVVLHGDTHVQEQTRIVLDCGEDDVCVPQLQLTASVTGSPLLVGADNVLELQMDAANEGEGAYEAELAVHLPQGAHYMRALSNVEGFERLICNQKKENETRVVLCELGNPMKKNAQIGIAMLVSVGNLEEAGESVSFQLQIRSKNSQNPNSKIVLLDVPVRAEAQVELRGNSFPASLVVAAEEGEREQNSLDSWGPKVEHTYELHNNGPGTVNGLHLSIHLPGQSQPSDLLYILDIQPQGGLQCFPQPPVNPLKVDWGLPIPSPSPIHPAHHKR
Sequence (P08514 891-1039 limits assumed): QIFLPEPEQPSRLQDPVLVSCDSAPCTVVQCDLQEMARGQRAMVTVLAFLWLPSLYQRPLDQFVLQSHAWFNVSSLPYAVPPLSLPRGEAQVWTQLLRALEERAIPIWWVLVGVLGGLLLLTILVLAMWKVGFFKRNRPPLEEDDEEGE
experimentSummary: Concentration required to inhibit adenosine diphosphate (ADP) induced aggregation of human platelets by 50% in vitro.
Peptide text beside a SMILES is read from it.
property: pIC50
Recall that pIC50 is obtained by taking minus log10 of the concentration measured in molar.

Here are 5 compounds together with their reported answers.
1. N=C(N)NCC1CCC(C(=O)NCC(=O)N2CCN(CC(=O)O)C(=O)[C@@H]2CC(=O)O)CC1 (stereo partly drawn) = 5.96
2. N=C(N)c1ccc(C(=O)NCC(=O)N2CCN(CC(N)=O)C(=O)[C@@H]2CC(=O)O)cc1 = 4.52
3. COC(=O)CC[C@H]1C(=O)N(CC(=O)O)CCN1C(=O)CNC(=O)c1ccc(C(=N)N)cc1 = 7.05
4. COC(=O)CC[C@H]1C(=O)N(CC(=O)O)CCN1C(=O)CNC(=O)c1ccc(CCN)cc1 = 6.92
5. COC(=O)C[C@@H]1C(=O)N(CC(=O)O)CCN1C(=O)CNC(=O)c1ccc(C(=N)N)cc1 = 6.24

Q: Query pIC50 for `N=C(N)N1CCC(C(=O)NCC(=O)N2CCN(CC(=O)O)C(=O)[C@@H]2CC(=O)O)CC1`
A: 6.10

Q: Dear colleague, please send me the reported pIC50 for `COC(=O)CN1CCN(C(=O)CNC(=O)c2ccc(C(=N)N)cc2)[C@@H](CC(=O)O)C1=O` when you can.
A: 5.59

Q: Please report the measured pIC50 for NC(N)=NCCC[C@H](N)C(=O)NCC(=O)N[C@@H](CC(=O)O)C(=O)N[C@@H](Cc1ccccc1)C(=O)O (H-RGDF-OH)
A: 4.32
